Let's look at some pIC50 data for Prothrombin (Homo sapiens, UniProt P00734) that I collected from the literature.
Keep in mind that pIC50 stands for -log10 of concentration in molar terms.

Past entries and their recorded results:
CS(=O)(=O)N1CCN(CC(=O)N[C@@H](CCCNC(=N)N)C(=O)c2nccs2)C(=O)[C@@H]1Cc1ccccc1 : 6.19
N=C(N)NCCC[C@@H](NC(=O)CN1CCN(S(=O)(=O)c2ccc(Cl)cc2)CC1=O)C(=O)c1nccs1 : 6.00
N=C(N)c1ccc(CNC(=O)[C@@H]2C=CCN2C(=O)[C@@H](CC2CCCCC2)NCC(=O)O)nc1 : 7.29

QUERY: Lab note: record pIC50 of Cc1ccn(NS(=O)(=O)c2cccc3ccccc23)c(=O)c1CC(=O)NCc1ccc(C(=N)N)cc1 tested on Prothrombin (Homo sapiens, UniProt P00734).
RESULT: 4.77

QUERY: Lab note: record pIC50 of CC(C)C[C@@H](NC(=O)[C@H](O)Cc1ccc(O)cc1)C(=O)N1CCC[C@H]1C(=O)NCC1CCNCC1 tested on Prothrombin (Homo sapiens, UniProt P00734).
RESULT: 5.88

QUERY: Lab note: record pIC50 of CC[C@@H](C)[C@@H](NC1CCCCC1)C(=O)N1C[C@](O)(CC)C[C@H]1C(=O)NCc1ccc2c(N)nccc2c1 tested on Prothrombin (Homo sapiens, UniProt P00734).
RESULT: 7.04

QUERY: Lab note: record pIC50 of N=C(N)c1ccc(CNC(=O)[C@@H]2CCC[C@H]2C(=O)NC2CCCCC2)cc1 tested on Prothrombin (Homo sapiens, UniProt P00734).
RESULT: 5.88

---

Let's look at some pIC50 data for Prothrombin (Homo sapiens, UniProt P00734) that I collected from the literature.
Keep in mind that pIC50 stands for -log10 of concentration in molar terms.

Past entries and their recorded results:
C/C(=C(\F)C(=O)Nc1ccc(-c2ccccc2S(N)(=O)=O)cc1F)c1ccc2ccnc(N)c2c1 : 5.20
Cc1cc(OCCc2ccc(C(=N)N)c(O)c2)cc(OS(=O)(=O)c2cccc(C)c2)c1 : 6.87
CC(C)CNC(=O)c1ccc(-c2ccc(-c3ccccc3)cc2C(=O)Nc2ccc(C(=N)N)cc2)c(C(=O)O)c1 : 4.93
N=C(N)NCCC[C@@H](NC(=O)CN1CCCC[C@H](NS(=O)(=O)Cc2ccccc2)C1=O)C(=O)c1nccs1 : 7.42
N=C(N)NCCC[C@H](NC(=O)[C@H](Cc1ccc2ccccc2c1)NC(=O)[C@@H](Cc1ccccc1)NS(=O)(=O)Cc1ccccc1)C(=O)c1nccs1 : 5.62
NC(N)=NCCC[C@H](NC(=O)CN1CCN(C(=O)Cc2ccccc2)CC1=O)C(=O)c1nccs1 : 4.96

QUERY: Please report the measured pIC50 for COc1ccccc1CCC(=O)N1CCC[C@H]1C(=O)NCC1CCC(N)CC1 (stereo not given in full)
RESULT: 6.64

QUERY: Please report the measured pIC50 for NC(=O)C[C@H](NC(=O)[C@@H](Cc1ccccc1)NS(=O)(=O)Cc1ccccc1)C(=O)N[C@@H](CCCN=C(N)N)C(=O)c1nccs1
RESULT: 4.22

QUERY: Please report the measured pIC50 for CC(C)[C@H](NC(=O)[C@@H](NC(=O)N[C@@H](C)c1ccc(Br)cc1)C1CCCCC1)C(=O)N[C@@H](CCCN=C(N)N)C(=O)c1nccs1
RESULT: 5.25

QUERY: Please report the measured pIC50 for Cn1c(=O)c(Cc2ccc(C(=N)N)cc2)nc2cc(C3(C(=O)N4CCCC4CO)CC3)ccc21 (stereo not given)
RESULT: 7.89

QUERY: Please report the measured pIC50 for N=C(N)NCCC[C@H](NC(=O)CN1CCN(S(=O)(=O)Cc2ccccc2)[C@@H](CC(=O)O)C1=O)C(=O)c1nccs1
RESULT: 3.49
